assay_overview: Nucleic acid encapsulation rate of nucleic acid lipid particles (FVII-siRNA)
Format: physicochemical
Listed here: items and their measured Nucleic acid encapsulation rate.
experimental_readout: Nucleic acid encapsulation rate (%)

compound	quantitative_result
CCCCCCCCCC(CCCCCCCCC)COC(=O)CCCC(CCCCCC)OC(=O)OCCN(CCN(CC)CC)C(C)C (stereo not shown) [Example 124]	84
CCCCCCCC(=O)OCCN(CCOC(=O)OC(CCCCCC)CCCCCCCCC(=O)OCCC(CCCCC)CCCCC)CCN(CC)CC (stereo not shown) [Example 125]	80
CCCCCCCC/C=C\CCCCCCCC(=O)OCCCCCCC(CCCCCCOC(=O)CCCCCCC/C=C\CCCCCCCC)OC(=O)OCCN(CCCCCC)CCN(C)C [Example 43]	87
CCCCC/C=C\C/C=C\CCCCCCCCC(CCCCCCCC/C=C\C/C=C\CCCCC)OC(=O)OCCN(CCC)CCN(C)C(C)C [Example 64]	86
